Target: T1, 4H3921-AA
T1 chain: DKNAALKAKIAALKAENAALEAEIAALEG
Test: two-hybrid library CCmax;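 note: natural log of median RNA to DNA barcode read ratio; higher means stronger binding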
Conditions: mean of both orientations
MEASURE: interaction score
Returns: the value as a bare number; no unit string appended.

Look over these answered cases.
- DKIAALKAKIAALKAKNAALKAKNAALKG [4H2944-AA]: -0.731
- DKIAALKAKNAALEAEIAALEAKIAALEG [4H2949-AA]: 0.152
- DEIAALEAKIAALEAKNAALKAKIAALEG [4H317-AA]: 1.81
- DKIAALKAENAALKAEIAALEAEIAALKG [4H2754-AA]: -0.732
- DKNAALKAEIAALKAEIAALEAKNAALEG [4H3655-AA]: -1.55

Exercise: Tell me the measured interaction score of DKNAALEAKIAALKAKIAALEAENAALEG [4H3427-AA] , please.
Key: -1.79
